Hey, just so you know, these numbers are from patent US8791132B2.

Measured Percentage inhibition of ligand binding, Adrenergic α2B of individual entries
# tgt: human recombinant adrenergic α2B receptor (Homo sapiens)
# Construct: expressed in transfected cells; host or cells: CHO-K1
# Sequence (P18089 1-450): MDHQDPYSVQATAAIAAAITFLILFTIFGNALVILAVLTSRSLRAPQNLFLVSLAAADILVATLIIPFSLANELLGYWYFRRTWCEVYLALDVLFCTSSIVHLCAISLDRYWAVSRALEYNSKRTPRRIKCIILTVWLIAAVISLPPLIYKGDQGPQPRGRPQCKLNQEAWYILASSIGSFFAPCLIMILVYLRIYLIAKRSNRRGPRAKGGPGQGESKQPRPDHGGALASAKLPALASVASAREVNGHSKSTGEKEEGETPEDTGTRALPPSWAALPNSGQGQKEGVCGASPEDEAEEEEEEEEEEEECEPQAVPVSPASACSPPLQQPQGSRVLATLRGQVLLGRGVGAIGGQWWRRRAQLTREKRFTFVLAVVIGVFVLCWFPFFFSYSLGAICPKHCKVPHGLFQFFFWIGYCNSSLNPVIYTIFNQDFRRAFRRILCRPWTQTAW
# assay: Radioligand binding, adrenergic α2B ([3H]Rauwolscine)
# experimental context: compound at 0.1 μM; [3H]Rauwolscine; repeat assays, each datapoint shown; 0.1 µM
readout type: Percentage inhibition of ligand binding, Adrenergic α2B (%)

[[record]]
molecule = "Cc1ccc2c(c1)c1c(n2CC(N)c2ccncc2)CCN(C)C1 (single isomer, unassigned) [27a]"
observed_result = 94

[[record]]
molecule = "Cc1ccc2c(c1)c1c(n2CC(O)c2ccncc2)CCN(C)C1 (stereo not drawn)"
observed_result = 103

[[record]]
molecule = "Cc1ccc2c(c1)c1c(n2CC(C)(O)c2cccnc2)CCN(C)C1 (single isomer, unassigned)"
observed_result = 57

[[record]]
molecule = "Cc1ccc2c(c1)c1c(n2CC(N)c2ccncc2)CCN(C)C1 (single isomer, unassigned) [27b]"
observed_result = 48

[[record]]
molecule = "Cc1ccc2c(c1)c1c(n2CCc2ccc(CO)nc2)CCN(C)C1"
observed_result = 83

[[record]]
molecule = "Cc1ccc2c(c1)c1c(n2CCc2cccnc2)CCN(C)C1"
observed_result = 94

